test: Phase and chemical stability experiments (10 days storage, XRD and purity); type: physicochemical; settings: 60° C./drying, 10 days
The compounds listed here are annotated with their Purity (%) (10 days test results).
Express the result in % but write the number alone.

A selection of reference data follows.
Cn1cncc1[C@@](N)(c1ccc(Cl)cc1)c1ccc2c(c1)c(-c1cccc(Cl)c1)cc(=O)n2C [Form II] ... 99.84
Cn1cncc1[C@@](N)(c1ccc(Cl)cc1)c1ccc2c(c1)c(-c1cccc(Cl)c1)cc(=O)n2C [Form IV] ... 99.85
Cn1cncc1[C@@](N)(c1ccc(Cl)cc1)c1ccc2c(c1)c(-c1cccc(Cl)c1)cc(=O)n2C [Form III] ... 99.80

// query Entry under review: Cn1cncc1[C@@](N)(c1ccc(Cl)cc1)c1ccc2c(c1)c(-c1cccc(Cl)c1)cc(=O)n2C [Form I] . Reported Purity (%) (10 days test results)?
// result 99.72

----------
Assay: Slurry experiment in water (stirred 3 days at room temperature, XRD)
Format: physicochemical
Conditions: stirred in water at room temperature for 3 days, by XRD
Procedure: Instruments and characterization methods: • X-ray powder diffraction (XRPD): performed on Bruder D8 Advance diffractometer. The samples were tested at room temperature under the following conditions: scan range 3-40° 2θ, step size 0.02° 2θ, and speed 0.2 s/step.
Metric name: Test results: crystalline form after stirring in water

Cn1cncc1[C@@](N)(c1ccc(Cl)cc1)c1ccc2c(c1)c(-c1cccc(Cl)c1)cc(=O)n2C [Form II] ... remained unchanged
Cn1cncc1[C@@](N)(c1ccc(Cl)cc1)c1ccc2c(c1)c(-c1cccc(Cl)c1)cc(=O)n2C [Form III] ... remained unchanged
Cn1cncc1[C@@](N)(c1ccc(Cl)cc1)c1ccc2c(c1)c(-c1cccc(Cl)c1)cc(=O)n2C [Form IV] ... remained unchanged

----------
test: Phase and chemical stability experiments (10 days storage, XRD and purity); format: physicochemical; conditions: 40° C./75% RH, 10 days
The compounds listed here are annotated with their Purity (%) (10 days test results).
I'd appreciate it if you included the unit after the number.

A selection of reference data follows.
Cn1cncc1[C@@](N)(c1ccc(Cl)cc1)c1ccc2c(c1)c(-c1cccc(Cl)c1)cc(=O)n2C [Form I] ... 99.61%
Cn1cncc1[C@@](N)(c1ccc(Cl)cc1)c1ccc2c(c1)c(-c1cccc(Cl)c1)cc(=O)n2C [Form IV] ... 99.73%
Cn1cncc1[C@@](N)(c1ccc(Cl)cc1)c1ccc2c(c1)c(-c1cccc(Cl)c1)cc(=O)n2C [Form III] ... 99.80%

Proceeding to the next compound to report its Purity (%) (10 days test results).
// query Entry under review: Cn1cncc1[C@@](N)(c1ccc(Cl)cc1)c1ccc2c(c1)c(-c1cccc(Cl)c1)cc(=O)n2C [Form II] . Reported Purity (%) (10 days test results)?
// result 99.86%
